test: NCI Yeast Anticancer Drug Screen. Data for the bub3 strain (AID 167); details: S. cerevisiae bub3 mutant strain, at 50.0 µM, stronger effect = higher value
Compounds without any hit were thinned out: in the full panel of roughly 79,000, 15% have a hit. Active and inactive are the calls of the source. Rule as the data show it: active = growth inhibition above about 70%; inactive = the rest.
recordedMetric: growth inhibition

Would you mind telling me what growth inhibition value was observed for CC(=S)NC(O)C(=O)c1ccccc1 (configuration not stated) ?
45.2% (inactive)

Sample O=C(OCC(OC(=O)c1ccccc1)C(OC(=O)c1ccccc1)C(COC(=O)c1ccccc1)OC(=O)c1ccccc1)c1ccccc1 (configuration not stated) — what was its growth inhibition?
16.4% (inactive)

# input compound: CC(C)(C)c1cc(/C=N/NC(=S)Nc2ccccc2)cc(C(C)(C)C)c1O ; wanted: its growth inhibition
-7.15% (inactive)

Report growth inhibition for CC(C)(C)OC(=O)NC(Cc1ccccc1)NC(=O)NC(=O)OCc1ccccc1 (configuration not stated) please.
-13.8% (inactive)

Data request, read-out growth inhibition, for O=C(/C=N\O)c1ccccc1[N+](=O)[O-]
-1.35% (inactive)

Endpoint output: growth inhibition of CCC(C)(C)c1ccc(OCCO)cc1 . Value?
-19.2% (inactive)

Sample CC1(C)OC2C(=O)C3COC(O3)C2O1 (configuration not stated) — what was its growth inhibition?
0% (inactive)

Can you look up the measured growth inhibition of N#Cc1cnn(-c2ccccc2)c1N for me?
-4.3% (inactive)

Which measured growth inhibition value corresponds to O=C(O)/C=C/C(=O)Nc1cc(Cl)cc2c1-c1c(Cl)cc(Cl)cc1C2O (configuration not stated) ?
11.3% (inactive)

For the compound CN1Cc2cc3c(cc2-c2ccccc21)OCO3 , what growth inhibition is on record?
-36.5% (inactive)

Requested field: growth inhibition. Item: Clc1ccccc1N=Cc1ccc(C=Nc2ccccc2Cl)cc1
38.5% (inactive)

If you can, please state the reported growth inhibition value of CCOCCOCCOCOCCOCCOCC .
25.9% (inactive)

* * *

Task for the reader: assign each of the following compounds its reported growth inhibition.
assay: NCI Yeast Anticancer Drug Screen. Data for the mlh1 rad18 strain (AID 175); details: S. cerevisiae mlh1 rad18 strain growth inhibition; at 50.0 µM; stronger effect = higher value
This is part of a sample that, as a whole, favours compounds with a hit. Of some 79,000 tested, about 15% had one in any assay.
Write down the numeric answer in % and omit the unit.

Please look up its growth inhibition: CNc1c2c(nc3ccccc13)CCCC2
-19.2

Any idea what its growth inhibition is? The compound is Cc1cc(N(C)C)c([N+](=O)[O-])cc1C=O
-5.8

# query: growth inhibition of entry O=C(/C(=C\c1ccccc1)c1ccccc1)c1ccccc1
21.4

Item under review: CC(=O)N(C)c1ccc(NC(=S)NC(=O)c2cccc([N+](=O)[O-])c2)cc1 . Reported growth inhibition?
7.05

Name the reported growth inhibition value associated with the compound C[n+]1ccn(S(=O)(=O)[O-])c1
-8.05

Query: growth inhibition; subject: O=C1CN(CCCCl)CC(=O)N2Cc3ccccc3CN12
-20.1

I'd like to know its growth inhibition. The compound in question is O=S1(=O)OCCOS(=O)(=O)C1S(=O)(=O)c1ccc2ccccc2c1
11.8

Please report the recorded growth inhibition for O=CNC1CCCCC1c1ccc(C2CCCCC2NC=O)cc1 (configuration not stated) .
22.8

Which growth inhibition value belongs to O=C(O)Cn1c[n+](NC(=O)Cc2ccccc2)cn1 ?
-10.8

Which growth inhibition reading was recorded for the compound CC12CCC(CC1)C2(C)C ?
-1.6

growth inhibition lookup needed for CC1(C)SC2C(C(=O)O)N=C(Cc3ccccc3)N2C1C(=O)O (configuration not stated) , thanks.
-7.05

// lookup growth inhibition for C#C[C@@H](CCCC)OC(=O)N[C@H](C)c1ccccc1
16.1

* * *

Give growth inhibition for every item shown.
test: NCI Yeast Anticancer Drug Screen. Data for the mec2-1 strain (AID 157); details: S. cerevisiae mec2-1 strain, at 50.0 µM, stronger effect = higher value
Compounds without any hit were thinned out: in the full panel of roughly 79,000, 15% have a hit.
# value in %; strip the unit string

Requested read-out: growth inhibition. Entry: Cc1ccc(N=NC(=O)NNc2ccc(C)cc2Br)c(Br)c1
-8.8

Could you tell me which growth inhibition is on file for COC(=O)C1C(=O)CC2CCCCC21 (configuration not stated) ?
-19.6

# input molecule: CCCc1c(O)c2ccccc2[nH]c1=O ; wanted: its growth inhibition
11.7

Looking for the measured growth inhibition of COC(=O)c1sc(=O)n(-c2ccccc2)c1SCc1ccccc1 , can you help?
-5.15

Data request, read-out growth inhibition, for O=C1NC(=O)C(c2cccc(F)c2)N1 (configuration not stated)
-12.3

Would you kindly share the measured growth inhibition for COC(=O)C12CC3CC(CC(C(=O)O)(C3)C1)C2 ?
-7.95

Requested field: growth inhibition. Item: COC(=O)c1nc[nH]c1C(=O)OC
-25.9

// query growth inhibition value for entry O=C1/C(=C/c2ccco2)SC(=S)N1C1c2ccccc2Oc2ccccc21
6.65

I am curious: what growth inhibition value has been reported for Clc1ccc(-c2nc3ccccc3cc2N2CCOCC2)cc1 ?
52

Please report the recorded growth inhibition for CCOC(=O)c1ccc(N)c(C(O)(C(F)(F)F)C(F)(F)F)c1 .
90.7

Requested read-out: growth inhibition. Entry: OCC1COc2ccc(Cl)cc2O1 (configuration not stated) (tested in a mixture with another compound)
-7.3

# input molecule: COc1cccc(Oc2c(O)c3ccc(OC)cc3oc2=O)c1 ; wanted: its growth inhibition
11.2

* * *

Consider the following compounds; for each one, report its growth inhibition.
Test: NCI Yeast Anticancer Drug Screen. Data for the rad50 strain (AID 155);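 also: 0% = growth of vehicle-only cultures of the same strain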
Details: S. cerevisiae rad50 strain growth inhibition; at 50.0 µM; stronger effect = higher value
Protocol: Growth inhibition of yeast strains with defined genetic alterations is measured as a screen for potential anti-cancer activity. Selected strains with alterations in DNA damage repair or cell cycle control were exposed to compounds and growth inhibition was measured relative to vehicle treated controls. The strain used in this assay is rad50
This is part of a sample that, as a whole, favours compounds with a hit. Of some 79,000 tested, about 15% had one in any assay.
Answer with a number only, understood to be in %.

Quick one: growth inhibition for Brc1ccc(-c2ccc(Br)cc2)cc1 ?
-4.45

// lookup growth inhibition for CCCCCCCC/C=C\CCCCCCCC(=O)NCCN1CCCCC1
99

// returns reported growth inhibition for input CC(=O)OCC1OC(OC(C)=O)C(NC(=O)C[NH-])C(OC(C)=O)C1OC(C)=O.CC(=O)OCC1OC(OC(C)=O)C(NC(=O)C[NH-])C(OC(C)=O)C1OC(C)=O.[Cl][Pt+2][Cl] (stereo not drawn)
-2.75

Which growth inhibition reading was recorded for the compound C=Cc1c(C)c2cc3[nH]c(cc4nc(cc5nc(cc1[nH]2)C(C)=C5CCC(=O)OC)C(CCC(=O)OC)=C4C)c(C)c3C=C ?
8.1

Fill blank: measured growth inhibition of the compound CCCCCCCc1ccccc1 is ____.
-13.1

Returns the measured growth inhibition for the input compound. Input: C=CCn1c(=S)sc2ccccc21
14.8

Could you tell me which growth inhibition is on file for CCC1CCC(=O)NC1=O (stereo not drawn) ?
-10.3

Given the compound O=C(O)C1Cc2c([nH]c3ccccc23)C=N1 (stereo not drawn) , what is its reported growth inhibition?
27.9

Requested field: growth inhibition. Item: O=C(Cl)c1cccc2c([N+](=O)[O-])cccc12
-4.45

What value of growth inhibition has been recorded for this entry: COC1CCC(O)C(C=Nc2ccccc2)C1 (stereo not drawn)
4.8

I'd like to know its growth inhibition. The compound in question is CCOC(=O)CC(=O)Cc1oc2c(C(C)=O)c(O)c(C)c(O)c2c1C
-0.8

Using the record for COc1nc(NC2OC(COC(C)=O)C(OC(C)=O)C(OC(C)=O)C2OC(C)=O)c(-c2csc(N)n2)c(=O)n1C (stereo not drawn) , report its growth inhibition.
-6.6

Given CC1=C(C(=O)NC2CCCCC2)CC(C(=O)NC2CCCCC2)=C(C)N1 , state its recorded growth inhibition.
-16.6

Need growth inhibition of O=S(=O)(c1ccccc1)C1C2CCC(O2)C1S(=O)(=O)c1ccccc1 (stereo not drawn) , thanks.
19.4

Given the entry CN(C(=O)CCCO)c1cc([N+](=O)[O-])ccc1OCc1ccccc1 , report its measured growth inhibition.
7.6

// query growth inhibition value for entry O=c1[nH]n2c(=O)cc[nH]c2c1-c1nnns1
-15.8

Report growth inhibition for COc1ccc(/C=[N+](\[O-])c2ccccc2)cc1 (tested in a mixture with another compound) please.
-2

Look up growth inhibition: S=C1SCN(C(c2ccccc2)c2ccccc2)CN1C(c1ccccc1)c1ccccc1
12.2

Which growth inhibition value belongs to O=C(Nc1ccc(S(=O)(=O)/N=c2\ncccn2C(=O)C(C(F)(F)F)C(F)(F)F)cc1)C(C(F)(F)F)C(F)(F)F ?
-5

Entry Nc1nc2c(-c3ccc([N+](=O)[O-])cc3)nnn2c2ccccc12 : reported growth inhibition = ?
12.7

So what does the record say about growth inhibition for COc1cc(C(=O)CCCC(=O)O)cc(OC)c1OC ?
-9.15

Sample Cc1cccc(CC(O)c2ccc(C=O)cc2)n1 (stereo not drawn) — what was its growth inhibition?
20.6

Bench note: what growth inhibition did COC(=O)C(NC(=O)C(C)N1C(=O)CCC(NS(=O)(=O)c2ccc(C)cc2)C1=O)C(C)C (stereo not drawn) show?
30.1

Name the reported growth inhibition value associated with the compound O=C(/C=C/c1ccccn1)c1ccc(Cl)cc1
22.1

Please look up its growth inhibition: Cc1ccc(S(=O)(=O)CC(=O)NC(N)=O)cc1
-5

Report growth inhibition for CCC1CN2C(=N1)c1ccccc1-c1cc([N+](=O)[O-])ccc12 (stereo not drawn) please.
94

// growth inhibition lookup, key: FC12CCC(F)(CC1)CC2
-7.85

// returns reported growth inhibition for input COc1ccc(Br)cc1/C=N\NC(=O)c1ccccc1N(C)C
-24.2

Endpoint output: growth inhibition of Cc1cc(N=C2C=C(Nc3cc(C)on3)C(=O)c3ccccc32)no1 . Value?
-8.9

I would be grateful if you could share the reported growth inhibition for O=C(Nc1ccccc1)Oc1ccc(C2CCCCC2)cc1 .
14.7

// lookup growth inhibition for Cc1c(C)c(C)c(CNNC(=S)Nc2cccc(Cl)c2)c(C)c1C
-6.35

Report growth inhibition for COc1nc2nccc-2c2occn12 please.
-29.4

Requested field: growth inhibition. Item: O=[N+]([O-])c1ccc(N/N=C2/CC(c3ccccc3)C(c3ccccc3)=C2Cl)c([N+](=O)[O-])c1 (stereo not drawn)
26.2

Find the recorded growth inhibition belonging to O=C(Nc1cccc([N+](=O)[O-])c1)N1CCCC1 and report it.
-7.1

Given the compound CN(C)CCSCC(=O)N1c2ccccc2Sc2ccc(Cl)cc21 , what is its reported growth inhibition?
-5.25

Sample COc1cc(OC)c(C(C)=O)c(O)c1OC — what was its growth inhibition?
2.75

Tell me the measured growth inhibition of CCOC(=O)C1(Br)C(c2ccccc2)NC(=O)N(C2OC(COC(=O)c3ccccc3)C(OC(=O)c3ccccc3)C2OC(=O)c2ccccc2)C1(C)Br (stereo not drawn) , please.
-25.4

# query: growth inhibition of entry O=C1CCCC2=C1C(c1ccc(Cl)c(Cl)c1)C1=C(CCCC1=O)O2
1.05

Look up growth inhibition: Cn1ncc2c(=O)[nH]c(-c3ccccc3)nc21
-0.75

I am curious: what growth inhibition value has been reported for Brc1ccc2c(c1)C1(c3cc(Br)ccc3-2)c2cc(Br)ccc2-c2ccc(Br)cc21 ?
2.45

Look up growth inhibition: C/C(CC(=O)Nc1ccc([N+](=O)[O-])cc1)=N/N=C(N)N
-4.25

If you can, please state the reported growth inhibition value of CCCCCCCCCCCCC(F)C(=O)OCC1OC(n2cc(C)c(=O)[nH]c2=O)CC1N=[N+]=[N-] (stereo not drawn) .
3.25

What value of measured growth inhibition is listed for c1ccc2c(c1)nc(NC1CCCC1)c1[nH]c(C3CCCC3)nc12 ?
-26.1
